- Target Entity: T1, NFIL3 E111Q (human, UniProt Q16649 65-161, E111Q)
- T1 sequence: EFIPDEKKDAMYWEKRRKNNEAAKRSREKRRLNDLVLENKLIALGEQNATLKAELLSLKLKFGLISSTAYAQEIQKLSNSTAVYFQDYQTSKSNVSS
- Protocol Text: ITC; ITC: 20 mM Tris pH 7.5, 150 mM NaCl, 25 °C; EMSA: same buffer, 4 °C, 6% native gel in 0.5x TBE
- Test Settings: protein: recombinant; tags: His6-SUMO removed by TEV; chain copies: 2; blunt
Measure Name: pKd
Interpret pKd as the negative base-10 log of the concentration measured in mol/L.

Challenge: Tell me the measured pKd of TTACGTAA (dsDNA) DNA 1: CATTACGTAATG DNA 2: CATTACGTAATG , please.
Response given: 6.70
